molecular target: full-length Pin1 (1–163) (human, UniProt Q13526 1-163); assay: SPR
Sequence (Q13526 whole entry): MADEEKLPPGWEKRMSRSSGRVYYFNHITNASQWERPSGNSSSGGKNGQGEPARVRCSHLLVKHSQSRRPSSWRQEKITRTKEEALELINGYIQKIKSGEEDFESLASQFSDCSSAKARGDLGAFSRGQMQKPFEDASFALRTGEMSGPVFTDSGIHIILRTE
quantity kind: Kd (µM)
Express your answer in µM, writing the number without its unit.

Prompt line: // query Kd value for entry c-Myc_(1–88) (domain or fragment, human, UniProt P01106-1 1-88, looked up) MPLNVSFTNRNYDLDYDSVQPYFYCDEEENFYQQQQQSELQPPAPSEDIWKKFELLPTPPLSPSRRSGLCSPSYVAVTPFSLRGDNDG
Response line: 4

Entry source: paper PMC4807222
